tested on: Puccinia recondita—PUCCRT; assay: Brown rust of wheat, 1-day protectant whole plant test; type: in vivo; conditions: 100 ppm spray, 1-day protectant (1DP), wheat cultivar Monon
measurement-name: PUCCRT percent control of the plant disease compared with untreated, inoculated plants

In the examples that follow, each entry is paired with its recorded PUCCRT percent control of the plant disease compared with untreated, inoculated plants.
Provide PUCCRT percent control of the plant disease compared with untreated, inoculated plants, recorded with Puccinia recondita—PUCCRT, of CNC(=O)C(=NOC)c1cccc(Cl)c1COc1ccc(Sc2cccc(C)c2)cn1 [Compound 7]
100%

Provide PUCCRT percent control of the plant disease compared with untreated, inoculated plants, recorded with Puccinia recondita—PUCCRT, of CNC(=O)C(=NOC)c1ccccc1COc1cccc(Sc2ccc(C)cc2)n1 [Compound 15]
100%

Quick one: give me PUCCRT percent control of the plant disease compared with untreated, inoculated plants for each item below, same order please.
1. CNC(=O)C(=NOC)c1ccccc1COc1cccc(Sc2ccccc2C)n1 [Compound 17]
2. CNC(=O)C(=NOC)c1ccccc1COc1cccc(Sc2cccc(Cl)c2)n1 [Compound 23]
3. CNC(=O)C(=NOC)c1ccccc1COc1cccc(Sc2cccc(C(F)(F)F)c2)n1 [Compound 22]

["100%", "100%", "98%"]

###

tested on: Puccinia recondita—PUCCRT; experiment: Brown rust of wheat, 1-day protectant whole plant test; type: in vivo; settings: 100 ppm spray, 1-day protectant (1DP), wheat cultivar Monon
Record form. Attribute: PUCCRT percent control of the plant disease compared with untreated, inoculated plants. Fill in for each entry.
Give bare numbers, in %.

Provide only the value of recorded PUCCRT percent control of the plant disease compared with untreated, inoculated plants for CNC(=O)C(=NOC)c1ccccc1COc1cccc(Sc2cccc(F)c2)n1 [Compound 30]
100

Provide only the value of recorded PUCCRT percent control of the plant disease compared with untreated, inoculated plants for CNC(=O)C(=NOC)c1ccccc1COc1cccc(Sc2ccccc2)n1 [Compound 14]
100

Provide only the value of recorded PUCCRT percent control of the plant disease compared with untreated, inoculated plants for CNC(=O)C(=NOC)c1cccc(F)c1COc1cccc(Sc2ccccc2)n1 [Compound 34]
100

Provide only the value of recorded PUCCRT percent control of the plant disease compared with untreated, inoculated plants for CNC(=O)C(=NOC)c1ccccc1COc1ccc(Sc2ccccc2)cn1 [Compound 6]
98

Provide only the value of recorded PUCCRT percent control of the plant disease compared with untreated, inoculated plants for CNC(=O)C(=NOC)c1ccccc1COc1cccc(Sc2ccc(Cl)cc2C)n1 [Compound 28]
100

Quick one: give me PUCCRT percent control of the plant disease compared with untreated, inoculated plants for each item below, same order please.
1. CNC(=O)C(=NOC)c1ccccc1COc1cccc(Sc2cccc3ccccc23)n1 [Compound 31]
2. CNC(=O)C(=NOC)c1ccccc1COc1nc(Sc2ccc(Cl)cc2)c(Cl)cc1Cl [Compound 11]

1. 100
2. 89

Provide only the value of recorded PUCCRT percent control of the plant disease compared with untreated, inoculated plants for CNC(=O)C(=NOC)c1ccccc1COc1cccc(Sc2ccc(Cl)cc2)n1 [Compound 20]
100

###

measurement-name: melting point

Provide only the value of recorded melting point for CNC(=O)C(=NOC)c1cccc(Cl)c1COc1ccc(Sc2ccc(Cl)cc2)cn1 [Compound 5]
116 to 118 °C

Provide only the value of recorded melting point for CNC(=O)C(=NOC)c1ccccc1COc1ncc(Sc2ccccc2)cc1Cl [Compound 3]
84 to 86 °C

Provide only the value of recorded melting point for CNC(=O)C(=NOC)c1ccccc1COc1ccc(Sc2ccccc2)cn1 [Compound 6]
95 to 96 °C

Please find the next compound below.
Provide only the value of recorded melting point for CNC(=O)C(=NOC)c1cccc(Cl)c1COc1ccc(Sc2ccc(C)cc2)cn1 [Compound 4]
100 to 102 °C
